B1: r4_43_TrROS_Hall (parent)
chain: DLVTIKVPLENLEEIKKAAEKAGFKIVSISYDKENKEVTIVIEKKK

Variants of: B1
Assay name: folding stability dG (cDNA display proteolysis); higher = more stable
Test parameters: PBS, room temperature
Recorded endpoint: folding stability dG

1. DLVTIKVPLWNLEEIKKAAEKAGFKIVSISYDKENKEVTIVIEKKK [E10W]    3.79 kcal/mol
2. DLVTIKVPLENLEEIKKKAEKAGFKIVSISYDKENKEVTIVIEKKK [A18K]    3.86 kcal/mol
3. DLVTIKVPLENLEEIKKAAEKAGFKIVSISYDKENKCVTIVIEKKK [E37C]    3.8 kcal/mol
4. DLVTIKVPLENLEEIKKAAEKAGFKIVSISYDKENVEVTIVIEKKK [K36V]    3.32 kcal/mol
5. DLVTIKVPLENLEEIKKAAEKAGFKIVSISYDKLNKEVTIVIEKKK [E34L]    4.04 kcal/mol
6. DLVRIKVPLENLEEIKKAAEKAGFKIVSISYDKENKEVTIVIEKKK [T4R]    3.52 kcal/mol
7. DLVTIKVPLENLEEIKKAAEKAGFKIVSISYDNENKEVTIVIEKKK [K33N]    3.74 kcal/mol
8. DLVTIKVPLENLEEIKGAAEKAGFKIVSISYDKENKEVTIVIEKKK [K17G]    3.73 kcal/mol
9. DLVTIKVFLENLEEIKKAAEKAGFKIVSISYDKENKEVTIVIEKKK [P8F]    3.75 kcal/mol
10. DLVTIKVPLENLEEIKLAAEKAGFKIVSISYDKENKEVTIVIEKKK [K17L]    3.73 kcal/mol
11. DLVTIKVPLENLPEIKKAAEKAGFKIVSISYDKENKEVTIVIEKKK [E13P]    3.52 kcal/mol
12. DLVTIKVPLENLEEIKAAAEKAGFKIVSISYDKENKEVTIVIEKKK [K17A]    3.56 kcal/mol
13. DLVTIKVPLENVEEIKKAAEKAGFKIVSISYDKENKEVTIVIEKKK [L12V]    3.56 kcal/mol
14. DLVTIKVPLENLEEIKKAAEKAGFKIVSIMYDKENKEVTIVIEKKK [S30M]    3.49 kcal/mol
15. DLVTIKVPLENLEEIKKAAEKAGFKIVSVSYDKENKEVTIVIEKKK [I29V]    3.67 kcal/mol
16. DLVTIKVPLENLEPIKKAAEKAGFKIVSISYDKENKEVTIVIEKKK [E14P]    3.95 kcal/mol
